molecular target: Short transient receptor potential channel 4 (Mus musculus) (UniProt Q9QUQ5); assay: calcium flux activators in TRPC4/5HT1a cells, counter-screen for TRPC4 activator project, cell-based, second counter screen, HEK293 TRPC4/5HT1a, Fluo-4 (AID 434977); conditions: Fluo-4 calcium flux, at 10 µM; active compounds read high;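 on activation: plate controls were assay buffer for no effect and maximal serotonin response for full effect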
Sequence (Q9QUQ5 whole entry, looked up): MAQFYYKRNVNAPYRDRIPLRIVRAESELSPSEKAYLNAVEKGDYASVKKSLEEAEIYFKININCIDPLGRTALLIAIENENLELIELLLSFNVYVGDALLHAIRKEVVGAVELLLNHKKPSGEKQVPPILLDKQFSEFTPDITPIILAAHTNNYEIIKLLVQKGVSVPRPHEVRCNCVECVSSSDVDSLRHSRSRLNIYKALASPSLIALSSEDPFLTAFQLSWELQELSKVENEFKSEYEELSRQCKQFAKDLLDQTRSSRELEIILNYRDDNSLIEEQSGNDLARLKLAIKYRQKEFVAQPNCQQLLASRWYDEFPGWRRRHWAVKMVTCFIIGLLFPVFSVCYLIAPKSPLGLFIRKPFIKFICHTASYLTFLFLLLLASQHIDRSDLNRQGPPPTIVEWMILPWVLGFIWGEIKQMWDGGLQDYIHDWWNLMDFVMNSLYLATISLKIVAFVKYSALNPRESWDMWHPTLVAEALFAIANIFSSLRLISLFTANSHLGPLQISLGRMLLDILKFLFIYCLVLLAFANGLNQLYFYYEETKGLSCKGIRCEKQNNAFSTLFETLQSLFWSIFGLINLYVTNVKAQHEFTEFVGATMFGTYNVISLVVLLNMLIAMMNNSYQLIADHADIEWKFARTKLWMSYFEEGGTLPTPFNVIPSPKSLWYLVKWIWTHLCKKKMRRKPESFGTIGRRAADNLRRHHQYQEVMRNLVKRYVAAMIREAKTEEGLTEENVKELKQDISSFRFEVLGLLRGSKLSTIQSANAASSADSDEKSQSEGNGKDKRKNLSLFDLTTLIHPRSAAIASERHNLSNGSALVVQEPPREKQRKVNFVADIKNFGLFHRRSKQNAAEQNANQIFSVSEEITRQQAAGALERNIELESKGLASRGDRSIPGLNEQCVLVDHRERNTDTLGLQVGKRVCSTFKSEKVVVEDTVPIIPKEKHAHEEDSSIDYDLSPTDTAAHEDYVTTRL
Activity calls are given as the source filed them.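 How the source made its calls: active means calcium signal rise above buffer-control mean plus 5 SD in both duplicates, and also a hit in the primary screen; inactive means the rest.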
quantityMeasured: activation

Solved cases below.
• COC(=O)CSc1nnc2n(-c3ccc(OC)cc3)c(=O)c3c4c(sc3n12)CCCCC4 = inactive
• Cc1ccc2nc3c(c(N)c2c1)CCN3C = inactive
• FC(F)(F)COc1nc(N2CCCCC2)nc(N2CCNCC2)n1 = inactive
• CCN1CCN(c2ccc(S(=O)(=O)N3CCOCC3)cc2NC(=O)c2ccccc2OC(F)F)CC1 = 77.8% (active)
• O=C1/C(=C\c2cc([N+](=O)[O-])ccc2O)SC(=S)N1Cc1ccc(Cl)cc1 = 147% (active)
• O=C1CC(NS(=O)(=O)c2cccs2)CN1c1ccccc1 (stereo not drawn) = inactive
• O=C(CN1CCCN(S(=O)(=O)c2ccc(F)cc2)CC1)Nc1ccccc1Br = inactive
• OCC1(Cc2ccc(Cl)cc2)CCN(Cc2ccccc2F)CC1 = inactive

So for CCOC(=O)C1(CCOC)CCN(C(C)CCc2ccc(OC)cc2)CC1 (stereo not drawn) , the logged activation turned out to be inactive

So for OCCNCc1cc(Br)ccc1OCc1ccc(Cl)cc1Cl , the logged activation turned out to be inactive

So for CC(Sc1nc2sc3c(c2c(=O)n1-c1ccccc1)CCCC3)C(=O)O (stereo not drawn) , the logged activation turned out to be inactive

So for COc1cc(OC)c2c(-c3ccccc3)cc(=O)oc2c1C(CCN1CCCCC1)c1ccc(N(C)C)cc1 (stereo not drawn) , the logged activation turned out to be 38.3% (active)

So for CC(C)Oc1cc(N)c(Cl)cc1Cl , the logged activation turned out to be inactive

---

biological target: Short transient receptor potential channel 4 (Mus musculus); assay: blockers of DAMGO-evoked TRPC4 calcium flux – cell-based, second round, Fluo4, HEK293 TRPC4beta/mu-opioid, 1 µM, confirmation (AID 2637); details: at 1 µM
Active and inactive are the calls of the source.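 The calls were made as follows: active = calcium signal ratio cut to more than 3 SD under the fully stimulated control mean yet still positive, in both repeats and the primary screen; inactive = the rest.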
The categories you may choose from are true (active), false (inactive)

Some solved entries appear below for comparison.
- O=C(COc1ccc(Cl)cc1)Nc1ccc(C(=O)O)cc1NC(=O)COc1ccc(Cl)cc1: false
- COc1cc(CNC2CCCC2)c(Br)cc1OC1CCCC1: false

What did this assay record as the result for CC1(C)CC(=O)C(C=NCCN2CCN(C(=O)CCl)CC2)=C(O)C1 ? false

What did this assay record as the result for CN1C2C=C(N(CCc3ccccc3)C(=O)c3ccc(Cl)cc3)CC1CC2 (stereo not given) ? false

What did this assay record as the result for O=C(O)CN1C(c2ccccc2O)Nc2ccc(Br)cc2C1c1ccccc1 (stereo not given) ? true

---

target: Short transient receptor potential channel 4 (Mus musculus); experiment: blockers of DAMGO-evoked TRPC4 calcium flux – cell-based, Fluo4, HEK293 TRPC4beta/mu-opioid, confirmation (AID 2636); conditions: at 10 µM
Active and inactive are the calls of the source.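 How the source made its calls: active means calcium signal cut by more than 3 SD below the full-agonist control yet still positive, in both repeats and the earlier primary screen; inactive means the rest.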
The categories you may choose from are t = active, f = inactive

What did this assay record as the result for CCn1c(N2CCN(S(=O)(=O)CC)CC2)nc2ccccc21 ? f

What did this assay record as the result for C=CCn1c(SCCN2CCCC2)nc2c([nH]c3ccccc32)c1=O ? f
